Reference source for all entries: the supplement of paper PMC10065799

Exercise: for every item that follows, state its recorded phosphorylation enrichment.
# subject-of-test: Fyn (UniProt P06241)
# Sequence (P06241 whole entry, looked up): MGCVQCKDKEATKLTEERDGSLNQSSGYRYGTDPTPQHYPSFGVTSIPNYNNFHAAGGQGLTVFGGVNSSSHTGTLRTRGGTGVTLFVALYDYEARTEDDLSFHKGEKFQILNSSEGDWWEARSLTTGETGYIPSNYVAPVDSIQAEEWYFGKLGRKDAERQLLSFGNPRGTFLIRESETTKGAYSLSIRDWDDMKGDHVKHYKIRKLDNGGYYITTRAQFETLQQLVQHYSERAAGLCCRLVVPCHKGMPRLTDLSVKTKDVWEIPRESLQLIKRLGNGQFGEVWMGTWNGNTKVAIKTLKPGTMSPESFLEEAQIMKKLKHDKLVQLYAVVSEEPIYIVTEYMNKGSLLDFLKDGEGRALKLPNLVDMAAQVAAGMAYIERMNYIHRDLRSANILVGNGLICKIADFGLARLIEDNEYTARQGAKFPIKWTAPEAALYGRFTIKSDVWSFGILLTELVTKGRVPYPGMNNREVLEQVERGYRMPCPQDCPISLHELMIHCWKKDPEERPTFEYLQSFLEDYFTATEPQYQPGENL
# protocol-text: phosphorylation enrichment, bacterial display (enrichment ratio); higher = better substrate or ligand; peptides without Tyr show the background
Format: numeric value only, no unit, no commentary.

Tested on Fyn (UniProt P06241): YETDYYQKGGK [INSR_Y1190_R1191Q] . Observed phosphorylation enrichment: 0.519

Tested on Fyn (UniProt P06241): SLYPGYNFRYA [P2RX7_Y291] . Observed phosphorylation enrichment: 0.413

Tested on Fyn (UniProt P06241): DDFNLYINVKL [MTHFD1_Y52_S49F] . Observed phosphorylation enrichment: 0.46

Tested on Fyn (UniProt P06241): AFPGEYIPTVF [RAC1_Y32] . Observed phosphorylation enrichment: 0.381

Tested on Fyn (UniProt P06241): TDKLFYIYTSG [SLC27A4_Y243] . Observed phosphorylation enrichment: 0.48

Tested on Fyn (UniProt P06241): QMVDMYASSFM [AVPR2_Y124_G122D_YF] . Observed phosphorylation enrichment: 1.35

Tested on Fyn (UniProt P06241): GPGGDYAAMGA [ERBB3_Y1276] . Observed phosphorylation enrichment: 0.414

Tested on Fyn (UniProt P06241): DDDPEYRKFLE [UPF3B_Y160] . Observed phosphorylation enrichment: 0.617

Tested on Fyn (UniProt P06241): EASGIYVKSVI [PATJ_Y396_I400V] . Observed phosphorylation enrichment: 0.433

Tested on Fyn (UniProt P06241): VSNFNYFFHRE [KCNA1_Y413_YF] . Observed phosphorylation enrichment: 0.454

Tested on Fyn (UniProt P06241): AMGAVYQAAAL [HYOU1_Y421] . Observed phosphorylation enrichment: 1.91

Tested on Fyn (UniProt P06241): KKHIPYKEHKS [CSNK1G1_Y205_R206K] . Observed phosphorylation enrichment: 0.597

Tested on Fyn (UniProt P06241): RTEAQYRFIYM [PTPN11_Y511_Q506R] . Observed phosphorylation enrichment: 0.423

Tested on Fyn (UniProt P06241): IVRSRYEDLED [VHL_Y185_L184R] . Observed phosphorylation enrichment: 0.693

Tested on Fyn (UniProt P06241): DDLTDYLMKIL [ACTA1_Y190_R185D] . Observed phosphorylation enrichment: 0.444

###

# subject-of-test: Hck (UniProt P08631)
# Sequence (P08631 whole entry, looked up): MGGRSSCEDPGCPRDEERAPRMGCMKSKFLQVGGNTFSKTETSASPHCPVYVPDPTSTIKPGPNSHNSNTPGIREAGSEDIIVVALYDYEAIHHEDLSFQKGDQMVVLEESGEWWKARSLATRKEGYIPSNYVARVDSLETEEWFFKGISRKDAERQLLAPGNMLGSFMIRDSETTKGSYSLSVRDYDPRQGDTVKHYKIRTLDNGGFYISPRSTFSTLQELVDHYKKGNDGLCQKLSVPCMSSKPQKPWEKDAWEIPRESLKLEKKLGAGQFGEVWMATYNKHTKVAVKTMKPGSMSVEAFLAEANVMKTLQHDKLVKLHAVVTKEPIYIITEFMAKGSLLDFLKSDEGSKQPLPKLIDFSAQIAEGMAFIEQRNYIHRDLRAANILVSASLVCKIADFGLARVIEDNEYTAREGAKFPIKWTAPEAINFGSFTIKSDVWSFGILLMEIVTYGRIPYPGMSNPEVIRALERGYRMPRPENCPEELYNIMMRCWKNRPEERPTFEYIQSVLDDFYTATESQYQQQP
# protocol-text: phosphorylation enrichment, bacterial display (enrichment ratio); higher = better substrate or ligand; peptides without Tyr show the background
experimental-readout: phosphorylation enrichment
Format: numeric value only, no unit, no commentary.

The sequence identified as TTPGPHRSIFF [MPG_Y71_Y71H_YF] registered its phosphorylation enrichment at 0.355

The sequence identified as SHLEDYPFDAE [AKR1B10_Y310_N313D] registered its phosphorylation enrichment at 0.448

The sequence identified as THEVRYVSAGQ [SLCO4A1_Y77] registered its phosphorylation enrichment at 0.374

The sequence identified as TSSGGYRRTPS [ABI1_Y333] registered its phosphorylation enrichment at 0.409

The sequence identified as IAKNPYDPPGR registered its phosphorylation enrichment at 0.316

The sequence identified as TTKAKYKTPIY [PLD2_Y573_T577I] registered its phosphorylation enrichment at 0.789

The sequence identified as ANNEFYFRVCA registered its phosphorylation enrichment at 0.516

The sequence identified as PPAPRYHHLAV [LZTR1_Y119_S122L] registered its phosphorylation enrichment at 0.71

The sequence identified as RTEAQYRFIFM [PTPN11_Y511_Q506R_YF] registered its phosphorylation enrichment at 0.398

The sequence identified as KLPFPYDDPFS [GPX2_Y127_YF] registered its phosphorylation enrichment at 0.663

The sequence identified as ETKTPYTVILI [SBDS_Y128_R126T] registered its phosphorylation enrichment at 0.569

The sequence identified as SRGSSYSSIPK [FLNC_Y2625] registered its phosphorylation enrichment at 0.381

###

# subject-of-test: EPHB1 (UniProt P54762)
# Sequence (P54762 whole entry, looked up): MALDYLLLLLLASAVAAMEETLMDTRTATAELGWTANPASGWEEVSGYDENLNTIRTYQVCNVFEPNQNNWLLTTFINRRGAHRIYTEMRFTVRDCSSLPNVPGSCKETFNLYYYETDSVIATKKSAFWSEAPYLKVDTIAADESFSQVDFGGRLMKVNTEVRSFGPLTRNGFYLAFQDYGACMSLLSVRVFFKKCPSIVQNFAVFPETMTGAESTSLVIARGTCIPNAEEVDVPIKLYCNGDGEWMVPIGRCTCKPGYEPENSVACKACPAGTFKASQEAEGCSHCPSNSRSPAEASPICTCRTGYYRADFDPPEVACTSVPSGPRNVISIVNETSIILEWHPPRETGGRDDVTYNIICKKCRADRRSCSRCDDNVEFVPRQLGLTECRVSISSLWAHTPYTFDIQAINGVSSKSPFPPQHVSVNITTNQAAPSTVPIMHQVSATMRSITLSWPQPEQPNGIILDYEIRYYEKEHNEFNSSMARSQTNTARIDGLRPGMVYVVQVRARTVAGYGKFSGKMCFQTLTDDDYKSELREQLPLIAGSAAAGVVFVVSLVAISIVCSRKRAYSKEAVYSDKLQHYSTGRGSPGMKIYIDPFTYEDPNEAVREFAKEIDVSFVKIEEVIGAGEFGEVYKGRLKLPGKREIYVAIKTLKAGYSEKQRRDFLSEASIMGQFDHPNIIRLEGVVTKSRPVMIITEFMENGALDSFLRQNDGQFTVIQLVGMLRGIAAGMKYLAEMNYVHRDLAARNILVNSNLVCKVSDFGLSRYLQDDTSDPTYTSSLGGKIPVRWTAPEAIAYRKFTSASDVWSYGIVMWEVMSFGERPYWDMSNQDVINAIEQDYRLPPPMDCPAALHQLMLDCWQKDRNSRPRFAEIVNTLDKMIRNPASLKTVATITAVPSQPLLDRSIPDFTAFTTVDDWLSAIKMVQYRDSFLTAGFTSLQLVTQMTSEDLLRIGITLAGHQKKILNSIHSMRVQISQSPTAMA
# protocol-text: phosphorylation enrichment, bacterial display (enrichment ratio); higher = better substrate or ligand; peptides without Tyr show the background
Exercise: for every item that follows, state its recorded phosphorylation enrichment.
Format: numeric value only, no unit, no commentary.

The sequence identified as PEAALYGRFTI [FYN_Y440] registered its phosphorylation enrichment at 0.59

The sequence identified as PRLLRYLQLDF [ASB10_Y457] registered its phosphorylation enrichment at 0.995

The sequence identified as ANNEYYFQVCA registered its phosphorylation enrichment at 0.957

The sequence identified as FKELVYETVRV [FSHB_Y76] registered its phosphorylation enrichment at 10.2

The sequence identified as MKALGYFAVVT [OPA1_Y498] registered its phosphorylation enrichment at 0.852

The sequence identified as VGTKQYMAPEV [ACVRL1_Y375_R374Q] registered its phosphorylation enrichment at 0.466

The sequence identified as NQKGKYFNVER [ANAPC4_Y469_R465Q] registered its phosphorylation enrichment at 0.353

The sequence identified as MRALIYNSSTA [PLEKHA7_Y243] registered its phosphorylation enrichment at 0.507

The sequence identified as YKTPIYPYLLP [PLD2_Y578_T577I] registered its phosphorylation enrichment at 0.816

The sequence identified as MSRYIYSTDYY [NTRK1_Y676_D674Y] registered its phosphorylation enrichment at 8.88

The sequence identified as ECKLLYSQKEG [PTPN11_Y263_R265Q] registered its phosphorylation enrichment at 0.643

The sequence identified as TVQVAYFTMMM [SPATA17_Y83_YF] registered its phosphorylation enrichment at 0.662

The sequence identified as KILPEYLSNWT [AIFM1_Y347] registered its phosphorylation enrichment at 0.428

The sequence identified as LLKAKYELLNA [POLR3A_Y714] registered its phosphorylation enrichment at 0.454

###

Exercise: for every item that follows, state its recorded phosphorylation enrichment.
# Test system: c-Abl (mouse)
# protocol-text: phosphorylation enrichment, bacterial display (enrichment ratio); higher = better substrate or ligand; peptides without Tyr show the background
Format: numeric value only, no unit, no commentary.

The sequence identified as CASQLYPRHKH [DCTN4_Y263] registered its phosphorylation enrichment at 0.807

The sequence identified as NRDNTYNPVSE [FGA_Y127_R129P] registered its phosphorylation enrichment at 0.545

The sequence identified as FPCSVYVPDEW [INSR_Y1011] registered its phosphorylation enrichment at 1.08

The sequence identified as SQETYYRVSNM [ABCD1_Y181_Q178E] registered its phosphorylation enrichment at 1.33

The sequence identified as LSSISYVGCSL [ADGRD1_Y571] registered its phosphorylation enrichment at 0.79

The sequence identified as VDYQPYRKHKY [TEX37_Y28] registered its phosphorylation enrichment at 0.53

The sequence identified as THEVRYISAGQ [SLCO4A1_Y77_V78I] registered its phosphorylation enrichment at 0.838

###

# subject-of-test: SHP2-C SH2
# protocol-text: SH2 binding enrichment of the phosphorylated peptide, bacterial display (enrichment ratio); higher = better substrate or ligand; peptides without Tyr show the background
experimental-readout: SH2 binding enrichment
Format: numeric value only, no unit, no commentary.

The sequence identified as DQIDTYELSGA [DNM1_Y354_G359A] registered its SH2 binding enrichment at 0.727

The sequence identified as LERFIYNREEF [HLA-DPB1_Y59_F64Y_YF] registered its SH2 binding enrichment at 0.631

The sequence identified as NKEPRYQEDPP [TJP2_Y479] registered its SH2 binding enrichment at 0.822

The sequence identified as VFFGSYSRPFG [NKAP_Y104_YF] registered its SH2 binding enrichment at 1.2

The sequence identified as IFRASYVPFAA [RBM47_Y541_G538R_YF] registered its SH2 binding enrichment at 0.681

The sequence identified as VSVVDYVEPSP [TXNRD2_Y70_A66S] registered its SH2 binding enrichment at 0.757

The sequence identified as HYGNNYTDVLQ [MACC1_Y803_R804T] registered its SH2 binding enrichment at 3.32

The sequence identified as RLAKTYKTTLE [ALB_Y377_E378K] registered its SH2 binding enrichment at 0.669

The sequence identified as KVDKEYEVGVR [GHR_Y226_R229G] registered its SH2 binding enrichment at 0.764

The sequence identified as SGIYQYSIAKF [FOXL2_Y83_I84S] registered its SH2 binding enrichment at 11.8

The sequence identified as PARLEYCENEK [IRS1_Y46_Y47C] registered its SH2 binding enrichment at 1.21

The sequence identified as VIGRMYDFHVL [RPF2_Y109_YF] registered its SH2 binding enrichment at 1.14

The sequence identified as KHMADYPDYKY [SOX11_Y113] registered its SH2 binding enrichment at 0.847

The sequence identified as DKPENYRRLDI [VHL_Y175_V170D] registered its SH2 binding enrichment at 0.637

The sequence identified as DLFRLYICVKE [ARID1B_Y1091_V1092I] registered its SH2 binding enrichment at 0.521

The sequence identified as FLNSIYKSRDE [ROS1_Y2227] registered its SH2 binding enrichment at 0.954

The sequence identified as PRAGVYPEKDQ [DNM2_Y626_L621P] registered its SH2 binding enrichment at 0.917

The sequence identified as GEFHVYRHLRW [PRKRIP1_Y82_R87W] registered its SH2 binding enrichment at 0.838

The sequence identified as ICRWVYPLTPE [EIF2B5_Y319_R315C] registered its SH2 binding enrichment at 0.795

The sequence identified as FPDFVYKRIKA [DPYSL2_Y479] registered its SH2 binding enrichment at 0.622

The sequence identified as FVTSMYNEILM [TRPV1_Y310] registered its SH2 binding enrichment at 0.941

The sequence identified as EVVGGYSVHNA [MLH1_Y183_R182G] registered its SH2 binding enrichment at 0.537
